- TARGET_ENTITY: HLA-DR15 (DRB1*1501) (human)
- ASSAY_DETAILS: competition binding
- TEST_PARAMETERS: chains peptide; modification not given
PARAMETER_MEASURED: log10 of IC50 (log10 of the value in nM)
Reminder: these figures are log10 of reported IC50, in nM before transformation.

Example entries begin here.
RSPVFTDNSSPPVVPQSFQVAHLHAPTGSGKSTK [17N 1206-1239]    4.00
GREILLGPADGMVSKGWRLLAPITAYAQQTR [8N 1007-1037]    1.48
KPGIYRFVAPGERPSGMFD [27N 1495-1513]    2.18
AQGYKVLVLNPSVAATLGFGAYMSKAHGID [18N 1246-1275]    1.76

-- ask Using the record for DPNIRTGVRTITTGSPITYSTYGKFLADGG [19N 1275-1304] , report its log10 of IC50.
-- reply 2.74

Source: patent US20060110401A1
